Here, each record is paired with measured Kd data.
target: human integrin αvβ5 (Homo sapiens, UniProt P06756+P18084); test: Evaluation of integrin binding property (surface plasmon resonance, Biacore 3000, immobilized cyclic peptide); details: surface plasmon resonance, immobilized cyclic peptide, human integrin αvβ5; read-out: Binding activity (integrin binding property, dissociation constant rank)
Sequence (P06756 31-1048): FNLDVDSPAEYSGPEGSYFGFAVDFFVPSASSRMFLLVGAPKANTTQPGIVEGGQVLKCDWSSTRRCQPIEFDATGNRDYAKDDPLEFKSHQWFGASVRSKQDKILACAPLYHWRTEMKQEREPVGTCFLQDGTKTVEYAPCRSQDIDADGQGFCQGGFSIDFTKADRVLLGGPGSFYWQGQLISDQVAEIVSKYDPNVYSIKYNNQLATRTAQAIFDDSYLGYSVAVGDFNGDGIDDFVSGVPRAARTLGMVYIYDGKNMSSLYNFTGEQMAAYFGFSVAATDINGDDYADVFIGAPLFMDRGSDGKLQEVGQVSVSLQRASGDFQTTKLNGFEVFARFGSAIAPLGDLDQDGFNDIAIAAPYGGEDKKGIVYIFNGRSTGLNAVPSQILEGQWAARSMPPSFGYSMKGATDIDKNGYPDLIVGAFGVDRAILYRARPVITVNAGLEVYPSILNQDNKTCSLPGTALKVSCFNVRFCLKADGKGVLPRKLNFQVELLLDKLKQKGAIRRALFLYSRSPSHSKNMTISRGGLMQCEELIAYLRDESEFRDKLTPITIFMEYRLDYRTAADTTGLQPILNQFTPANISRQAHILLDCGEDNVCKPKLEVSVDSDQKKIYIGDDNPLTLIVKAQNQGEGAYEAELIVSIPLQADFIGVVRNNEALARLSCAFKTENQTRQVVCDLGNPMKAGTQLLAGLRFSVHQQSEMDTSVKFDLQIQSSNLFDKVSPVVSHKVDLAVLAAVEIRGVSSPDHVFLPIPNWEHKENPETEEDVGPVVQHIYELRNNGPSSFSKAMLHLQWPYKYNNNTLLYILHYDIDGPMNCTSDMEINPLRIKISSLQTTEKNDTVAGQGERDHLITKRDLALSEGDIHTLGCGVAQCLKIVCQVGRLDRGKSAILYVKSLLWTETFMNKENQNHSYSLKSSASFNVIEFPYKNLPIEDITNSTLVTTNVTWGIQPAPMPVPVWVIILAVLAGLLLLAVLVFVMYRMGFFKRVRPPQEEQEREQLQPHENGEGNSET
Sequence (P18084 24-799): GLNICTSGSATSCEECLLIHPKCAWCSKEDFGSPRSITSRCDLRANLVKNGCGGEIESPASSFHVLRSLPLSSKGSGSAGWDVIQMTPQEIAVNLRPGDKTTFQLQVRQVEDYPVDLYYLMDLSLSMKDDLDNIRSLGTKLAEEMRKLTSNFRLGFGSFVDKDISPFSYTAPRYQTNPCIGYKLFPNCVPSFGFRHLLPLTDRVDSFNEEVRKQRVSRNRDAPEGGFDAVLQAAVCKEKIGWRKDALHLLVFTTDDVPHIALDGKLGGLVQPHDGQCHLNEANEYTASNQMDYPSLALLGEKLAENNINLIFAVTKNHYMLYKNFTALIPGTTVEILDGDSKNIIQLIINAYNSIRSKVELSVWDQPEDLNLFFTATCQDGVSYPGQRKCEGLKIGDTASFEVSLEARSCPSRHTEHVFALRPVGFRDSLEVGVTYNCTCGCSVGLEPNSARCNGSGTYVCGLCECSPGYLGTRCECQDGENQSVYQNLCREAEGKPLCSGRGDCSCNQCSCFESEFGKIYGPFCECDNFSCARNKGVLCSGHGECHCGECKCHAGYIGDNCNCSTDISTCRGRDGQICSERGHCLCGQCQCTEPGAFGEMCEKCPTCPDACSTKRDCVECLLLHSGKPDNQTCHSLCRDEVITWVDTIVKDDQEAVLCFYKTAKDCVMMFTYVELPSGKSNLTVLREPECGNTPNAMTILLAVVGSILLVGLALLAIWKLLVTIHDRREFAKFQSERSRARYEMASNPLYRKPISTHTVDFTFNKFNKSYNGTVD
Starred links: 1 amine or outer side, 2 acyl side, 3 side chain; linkers in the order of their positions; H or OH if unused. Positions of bridges follow the written chain, without caps; N, C: chain ends. Non-standard residues stand in square brackets, D forms with d. Residues, ends and D or L forms follow the SMILES beside them. Pen = CC(C)(S)[C@H](N)C(=O)O; hCys = N[C@@H](CCS)C(=O)O; Dab = NCC[C@H](N)C(=O)O; Dap = NC[C@H](N)C(=O)O; X1 = O=C(C[*:2])[*:1]

Compound	Kd
CC[C@H](C)[C@@H]1NC(=O)[C@@H](NC(=O)CNC(=O)[C@H](CCCCN)NC(=O)[C@H](CCCCN)NC(=O)[C@@H](N)CCCCN)CNC(=O)CSCC[C@@H](C(=O)N[C@@H](C)C(=O)O)NC(=O)[C@H](CCCNC(=N)N)NC(=O)[C@H](Cc2ccccc2)NC(=O)[C@H]([C@@H](C)O)NC(=O)[C@H](CC(=O)O)NC(=O)CNC(=O)[C@H](CCCNC(=N)N)NC(=O)[C@@H]2CCCN2C1=O [Cyclic peptide 117, KKKG(Dap(acetyl))IPRGDTFR-(Hcy)-A] (H-KKKG[Dap]IPRGDTFR[hCys]A-OH; linker 5-14 via X1)	< 50 nM

Tell me measured Kd for CC[C@H](C)[C@@H]1NC(=O)[C@@H](NC(=O)[C@H](C)NC(=O)[C@H](CCCCN)NC(=O)[C@H](CCCCN)NC(=O)[C@@H](N)CCCCN)CCNC(=O)CSC(C)(C)[C@@H](C(=O)N[C@@H](C)C(=O)O)NC(=O)[C@H](C)NC(=O)[C@H](Cc2ccccc2)NC(=O)[C@H](CO)NC(=O)[C@H](CC(=O)O)NC(=O)CNC(=O)[C@H](CCCNC(=N)N)NC(=O)[C@@H]2CCCN2C1=O [Cyclic peptide 137, KKKA(Dab(acetyl))IPRGDSFA-(Pen)-A] (H-KKKA[Dab]IPRGDSFA[Pen]A-OH; linker 5-14 via X1) please.
50 to 100 nM

Every entry's value here was drawn from patent US12673975B2.
